- method summary: protein stability index of a GFP-peptide fusion (yeast GPS) (PSI 1-4); higher = more stable; sorted into four equal gates, so the index is relative within each strain
- recorded conditions: san1∆
parameter measured: protein stability index

Form field protein stability index, entry MSVKPIDNYITNSVRLF [SRP21] : 1.56

The sequence ELMDRTGLKLYSRITLI [RPP1] showed protein stability index equal to 1.69

The sequence identified as HYVSTSKISQMAQNKTH [YLR018C/POM34] registered its protein stability index at 1.78

Note to self: protein stability index recorded for VKSLLSEEKIRDYSKEI [SIR4] was 2.46

The sequence listed as KTQCPNYDTCGGESAYF [RPC11] shows protein stability index equal to 3.24

Lookup result for FFGPTYYQRLRHMVDDK [RPB2] ; measured protein stability index: 1.72

Entry LDLKECYQFAEYLFKPQ [ARP7] ; protein stability index = 3.03

# protein stability index of MSLKKCQEEVSTIEKDM [SMC2] = 2.75

Sure, the documented protein stability index for NMMNQVGEEETSQKMKK [SRP54] is 3.33

Memo: VLQNVFKLVSTPSSNSN [MED1] , reported protein stability index: 1.5

Reported protein stability index for FNDSQAIVCYILFELYK [SRP72] was 2.01

The sequence listed as KAKVEEMNNIIAASRRH [RPL36A] shows protein stability index equal to 3.19

Entry under test: IFSQMSRLLDILEDYCY [ISW2] . Its protein stability index was 2.03

Notebook: VLIKMVKMLRDNPGYKA [SIR3] , protein stability index read as 3.47
